system: HepG2; assay: cytotoxicity call (relative viability < 0.9); conditions: 10 µM
Hit rate of the full screen: of about 39,000 compounds, about 3,300 (8.5%) were called active. Shown is part of a subset that was picked to be rich in actives.
Your reply should match one of these outcome classes. Y for active, N for inactive

Completed entries (count: 4):
O=C(NCc1ccncc1)C(=O)NC[C@H]1OCCN1S(=O)(=O)c1ccc(F)cc1; N
COc1ccc(NC(=O)N(C)C[C@@H]2OCCCC[C@@H](C)Oc3ccc(NS(=O)(=O)c4ccc(C)cc4)cc3C(=O)N([C@H](C)CO)C[C@@H]2C)cc1; N
C[C@H]1CN([C@@H](C)CO)C(=O)c2cccc(NS(=O)(=O)c3cccs3)c2O[C@H]1CN(C)Cc1ccc(Oc2ccccc2)cc1; N
COC(=O)[C@H]1CCCNC1=O; N

[in] State the result this test recorded for C[C@H]1CN([C@@H](C)CO)C(=O)c2cc(NC(=O)Nc3ccc(C(F)(F)F)cc3)ccc2O[C@H]1CN(C)S(=O)(=O)c1ccc(Cl)cc1 .
[out] N

[in] State the result this test recorded for NNC(=O)[C@H]1CCCNC1=O .
[out] Y

[in] State the result this test recorded for C[C@@H]1CCCCO[C@H](CN(C)C(=O)Nc2ccccc2)[C@H](C)CN([C@H](C)CO)C(=O)c2cc(NC(=O)c3ccncc3)ccc2O1 .
[out] N

[in] State the result this test recorded for C=CC1CN2CCC1CC2C(O)c1ccnc2ccc(OC)cc12.O=C(O)C(O)C(O)C(O)C(O)CO (configuration not stated) .
[out] N

Recorded values, source the antibiotic and cytotoxicity screens of Wong et al. (2023).
